System: Aorta
protocol details: Vasodilatory activity in Sprague-Dawley rat endothelium-denuded thoracic aortic ring assessed as inhibition of phenylephrine-induced contraction
Format: functional, tissue-based
parameter: EC50
Just so you know, I need the unit written after the number.

If you can, please state the reported EC50 value of C[n+]1c2n(c(=O)c3ccccc31)CCc1c-2[nH]c2ccccc12 [DEHYDROEVODIAMINE] .
7.78 µM

If you can, please state the reported EC50 value of CN1c2ccccc2C(=O)N2CCc3c([nH]c4ccccc34)[C@@H]21 .
8.14 µM

If you can, please state the reported EC50 value of O=c1c2ccccc2nc2n1CCc1c-2[nH]c2ccccc12 .
1.75 µM
